System: SK-MEL-28 melanoma
Experiment: NCI tumour cell line growth inhibition, 48 h; in the data active means GI50 below about 0.43 µM; inactive means the rest
Outcomes: 1.0 = active, 0.0 = inactive

* COC(=O)c1cnc(=O)n(C2CC(O)C(CO)O2)c1 (centres undefined) | 0.0
* O/N=C1\CCc2cc(-c3nc(C4CCNCC4)[nH]c3-c3ccncc3)ccc21 | 0.0
* COc1cc2c(cc1OC)C(=O)C(Br)CC2 (centres undefined) | 0.0
* OB([O][Hg][c]1ccccc1)[O][Hg][c]1ccccc1 | 1.0
* COc1ccc(-c2cc(-c3ccc(Nc4nc(Nc5ccc(Cl)cc5)nc(Nc5ccc(Cl)cc5)n4)cc3)nc(N)c2C#N)cc1 | 0.0
* CCOC(=O)c1cnc(SCc2ccc(Cl)c(Cl)c2)nc1N1CC1 | 0.0
* O=C(Nc1n[nH]c2nc(-c3ccco3)c(Br)cc12)C1CC1 | 0.0
* COc1ccc(N(C)c2nc(C)nc3ccccc23)cc1 | 0.0
* Cn1cc(-c2ccc(=O)n(Cc3cccc(-c4ncc(OCCN5CCOCC5)cn4)c3)n2)cn1 | 0.0
* N#C/C(=C\c1c(-c2ccccc2)[nH]c2ccccc12)C(=O)c1ccc(Cl)cc1 | 0.0
* COc1cc2cc(Oc3ccc(NC(=O)Nc4cccc(C(F)(F)F)c4)cc3)c(C)nc2cc1OCCN1CCCCC1 | 0.0
* COc1cc(C2CC(c3cccc(Nc4ccncc4)c3)=NN2c2cc(Cl)cc(Cl)c2)cc(OC)c1OC (centres undefined) | 0.0
* CC1(C)CC(=O)C2=C(C1)NC(SSC1=C(C#N)C(c3ccccc3)C3=C(CC(C)(C)CC3=O)N1)=C(C#N)C2c1ccccc1 (centres undefined) | 0.0
* CCCCCCCCCCCCc1ccc(C(=O)/C=C/C(=O)O)cc1 | 0.0
* C1CCC([PH+](C2CCCCC2)C2CCCCC2[PH+](C2CCCCC2)C2CCCCC2)CC1.[Au].[CH-]1CCCCC1C1CCCC[N-]1 (centres undefined) | 0.0
* C[C@@H](c1ccc2nccn2c1)n1nnc2ncc(-c3cnn(C)c3)nc21 | 0.0
* COC(=O)[C@]12CC[C@@H](C)[C@H](C)[C@@H]1C1=CC[C@@H]3[C@@]4(C)CC(=O)[C@H](O)[C@@]5(C)COC(=C45)C[C@@]3(C)[C@]1(C)CC2 | 0.0
* COc1ccccc1C(=O)/C=C/c1cc2cccc(OC)c2[nH]c1=O | 0.0
* COc1cc2c3c(n(C)c(=O)c2cc1OC)-c1cc2c(cc1/C3=C\CCCCN)OCO2 | 0.0
